Each recorded value in this set is attributed to ChEMBL document CHEMBL1201862.

As a worked illustration, we turn to GI50 data collected for HCT-15.
property.label: GI50

[[record]]
compound = "O=C(NC(Cc1ccc(Br)cc1)C(=O)O)c1ccc(I)cc1 (configuration not stated)"
property_label = "GI50"
reported = "> 100 µM"

[[record]]
compound = "CCCCCCCCNC(=O)C1=C(C)NC(C)=C(C(=O)NCCCCCCCC)C1"
property_label = "GI50"
reported = "> 100 µM"

[[record]]
compound = "O=c1/c(=C/c2cccc([N+](=O)[O-])c2)sc2nc3ccccc3n12"
property_label = "GI50"
reported = "> 100 µM"

[[record]]
compound = "Cc1ccc(C(=O)N/N=C(\\N=N\\c2ccccc2[N+](=O)[O-])c2ccc(N(C)C)cc2)cc1"
property_label = "GI50"
reported = "92.5 µM"

[[record]]
compound = "COC(=O)CCC(NC(=S)N/N=C/c1cccs1)C(=O)OC (configuration not stated)"
property_label = "GI50"
reported = "> 100 µM"

[[record]]
compound = "O=C(O)CCC1c2[nH]c3ccccc3c2CCN1Cc1ccccc1 (configuration not stated)"
property_label = "GI50"
reported = "> 100 µM"

[[record]]
compound = "CCCCCCCCC1C(C)c2c([nH]c3ccccc23)C2C(=O)N(c3ccccc3)C(=O)C21 (configuration not stated)"
property_label = "GI50"
reported = "11.2 µM"


====

- Tested on: SW-620
- assay.method.text: NCI tumour cell line growth inhibition, 48 h
Calls of active or inactive are those of the source. Rule as the data show it: active = GI50 up to about 1.1 µM and inactive = higher.
Classes used: 1 (yes) for active, 0 (no) for inactive

[[record]]
molecule = "COP(=O)(OC)C(NC=O)P(=O)(OC)OC"
class_name = "0 (no)"

[[record]]
molecule = "COc1ccc(N2C(=O)C3c4[nH]c5cccc(C)c5c4C4CCC(C(C)(C)C)CC4C3C2=O)cc1 (stereo unspecified)"
class_name = "0 (no)"

[[record]]
molecule = "Cn1ccnc1CCc1c(Cl)cccc1Cl"
class_name = "0 (no)"

[[record]]
molecule = "O=C1NC(=O)C(=O)C(c2nc3ccccc3s2)C1=O"
class_name = "0 (no)"

[[record]]
molecule = "O=C(O)c1c[nH]c2c(Sc3ccccc3)nccc2c1=O"
class_name = "0 (no)"

[[record]]
molecule = "Cc1cc(C#N)c(Nc2ccccc2[N+](=O)[O-])s1"
class_name = "0 (no)"

[[record]]
molecule = "CN1c2ccccc2C(=O)NC12CCNCC2"
class_name = "0 (no)"

[[record]]
molecule = "Cc1nc2ccc(Br)cc2c(=O)n1-c1ccc(N)cc1"
class_name = "0 (no)"

[[record]]
molecule = "COC(=O)C1(Cc2ccc(C)cc2)Cc2c(C)cccc2C1=O (stereo unspecified)"
class_name = "0 (no)"

[[record]]
molecule = "NC(=S)N1N=C2c3ccccc3CCC[C@H]2[C@@H]1c1ccccc1"
class_name = "1 (yes)"

[[record]]
molecule = "CC12CC3CC/C(=N\\O)C(C1)C3(N1CCOCC1)C/C2=N/O (stereo unspecified)"
class_name = "0 (no)"

[[record]]
molecule = "O=c1cccc2n1CC1CNC[C@H]2C1 [CYTISINICLINE]"
class_name = "0 (no)"

[[record]]
molecule = "COC1=CC(=O)c2c(CCNC(=O)OCc3ccccc3)n[nH]c2C1=O"
class_name = "0 (no)"

[[record]]
molecule = "Nc1ccc(S(=O)(=O)c2ccc(/N=[N+](\\[O-])c3ccc(S(=O)(=O)c4ccc(N)cc4)cc3)cc2)cc1"
class_name = "0 (no)"

[[record]]
molecule = "COc1cc2c(cc1OCCCCOc1cc3nc(C)nc(Cl)c3cc1OC)N=C[C@@H]1CCCN1C2=O"
class_name = "0 (no)"

[[record]]
molecule = "Cc1c(Cl)c2ccccc2n1S(=O)(=O)c1ccccc1"
class_name = "0 (no)"

[[record]]
molecule = "CC(=O)OC1CCC2(C)C(=CCC3C2CCC2(C)C(C(C)C(=O)O)CCC32)C1 (stereo unspecified)"
class_name = "0 (no)"

[[record]]
molecule = "COc1ccc(C(=O)/C=C/c2ccc(OCC#N)cc2)cc1OC"
class_name = "0 (no)"

[[record]]
molecule = "CC(C)C1CC=NN1C(=O)OC(C)(C)C (stereo unspecified)"
class_name = "0 (no)"

[[record]]
molecule = "COc1ccc(Nc2n[nH]c(NS(=O)(=O)c3cc(C)c(Cl)cc3S)n2)cc1"
class_name = "0 (no)"

[[record]]
molecule = "O=C1OC(C(O)CO)C(O)=C1O (stereo unspecified)"
class_name = "0 (no)"


====

- System: UO-31
- assay.method.text: NCI tumour cell line growth inhibition, 48 h
Active and inactive are the calls of the source. Rule as the data show it: active = GI50 up to about 1.1 µM and inactive = higher.
property.label: GI50

[[record]]
compound = "CCCCCCCCNC(=O)C1=C(C)NC(C)=C(C(=O)NCCCCCCCC)C1"
reported = "77.6 µM (inactive)"

[[record]]
compound = "C/C(=N/N)c1ccc2[nH]c3c(C)cc([N+](=O)[O-])c(C)c3c2c1"
reported = "10.5 µM (inactive)"

[[record]]
compound = "O=C1/C(=C/c2ccccc2)CNC/C1=C\\c1ccccc1"
reported = "2.02 µM (inactive)"

[[record]]
compound = "O=c1c2cc(I)ccc2nc(Sc2ccc([N+](=O)[O-])cc2[N+](=O)[O-])n1Cc1ccccc1"
reported = "2.26 µM (inactive)"

[[record]]
compound = "COc1cccc2c1C(=O)c1c(O)c3c(c(O)c1C2=O)CC(O)(C(=O)CO)CC3OC1CC(N2CCOCC2C#N)C(O)C(C)O1 (configuration not stated)"
reported = "> 0.01 µM (active)"

[[record]]
compound = "COC(=O)C1(Cc2ccc(C)cc2)Cc2c(C)cccc2C1=O (configuration not stated)"
reported = "24.7 µM (inactive)"

[[record]]
compound = "Cc1c(C(=O)CC(=O)C(=O)Nc2c(C(C)C)cccc2C(C)C)[n+]([O-])c2ccccc2[n+]1[O-]"
reported = "16.6 µM (inactive)"

[[record]]
compound = "O=C1c2cc(Cl)ccc2N=C(NC2CCCC2)C2CSCN12 (configuration not stated)"
reported = "46.3 µM (inactive)"

[[record]]
compound = "O=C(c1c2c(cc3c1CC1(Cc4cc5c(cc4C1)CCCC5)C3)CCCC2)C(Br)Br"
reported = "13.8 µM (inactive)"

[[record]]
compound = "NS(=O)(=O)c1ccc(C(=O)O)cc1 [CARZENIDE]"
reported = "> 100 µM (inactive)"

[[record]]
compound = "CCOc1ccc(/N=N/C2C(=O)N(C(=O)CC(=O)Nc3ccccc3OC)N=C2C)cc1 (configuration not stated)"
reported = "> 71.1 µM (inactive)"

[[record]]
compound = "COc1cccc(C23CCCC(C2)NCC3Br)c1OC (configuration not stated)"
reported = "47.4 µM (inactive)"


====

- Test system: MCF7
- assay.method.text: NCI tumour cell line growth inhibition, 48 h
Active and inactive are the calls of the source. Rule as the data show it: active = GI50 up to about 1.1 µM and inactive = higher.
property.label: GI50

[[record]]
compound = "CC(=O)N(CC(=O)C(=O)NNc1ccoc1)c1ccc(Cl)cc1"
property_label = "GI50"
reported = "50.5 µM (inactive)"

[[record]]
compound = "N#Cc1c(N)oc(-c2cccc([N+](=O)[O-])c2)c1C#N"
property_label = "GI50"
reported = "53.3 µM (inactive)"

[[record]]
compound = "Cc1cccc(NC(=S)NNC(=O)c2cc(-c3ccccc3)nc3ccccc23)c1"
property_label = "GI50"
reported = "20.5 µM (inactive)"

[[record]]
compound = "Cc1cnc2c(c1)C(=O)N(c1ccc(Br)cc1)S2(=O)=O"
property_label = "GI50"
reported = "> 100 µM (inactive)"

[[record]]
compound = "CCOP(=O)(OCC)C(F)(F)c1ccc(CC(NC(=O)OC(C)(C)C)C(=O)O)cc1 (configuration not stated)"
property_label = "GI50"
reported = "> 10 µM (inactive)"

[[record]]
compound = "COc1cc(/C=C2/SC(c3ccccc3)N(c3cccc(NC(C)=O)c3)C2=O)cc(OC)c1OC (configuration not stated)"
property_label = "GI50"
reported = "39.2 µM (inactive)"

[[record]]
compound = "O=C(O)c1cc(C(=O)O)cc(N2C(=O)c3ccccc3C2=O)c1"
property_label = "GI50"
reported = "> 100 µM (inactive)"

[[record]]
compound = "NC(=S)N/N=C(/C(=O)Nc1nc2ccc([N+](=O)[O-])cc2s1)C1C(=O)NC(=S)NC1=O"
property_label = "GI50"
reported = "> 100 µM (inactive)"

[[record]]
compound = "COC(=O)C1=COC(OC2OC(CO)C(O)C(O)C2O)C2C3CN4CCc5c([nH]c6ccccc56)C4(CC12)O3 (configuration not stated)"
property_label = "GI50"
reported = "> 100 µM (inactive)"

[[record]]
compound = "C=C(C)[C@H]1C[C@@H]2O[C@@](O)(/C(C)=C\\C(=O)/C=C(/C)C[C@H]3OC(=O)[C@@]24O[C@H]34)[C@@H]1O"
property_label = "GI50"
reported = "> 100 µM (inactive)"

[[record]]
compound = "O=C(CC(=O)N1N=C(N(c2ccccc2)c2ccccc2)CC1c1ccccc1)Nc1ccc(Cl)cc1 (configuration not stated)"
property_label = "GI50"
reported = "> 100 µM (inactive)"

[[record]]
compound = "CC1(CO)COC(C)(C)OC1"
property_label = "GI50"
reported = "> 100 µM (inactive)"

[[record]]
compound = "O=C(C=P(c1ccccc1)(c1ccccc1)c1ccccc1)c1ccc(-c2cccc([N+](=O)[O-])c2)s1"
property_label = "GI50"
reported = "29.4 µM (inactive)"

[[record]]
compound = "O=C(CCCN1CCC2(CC1)CC(=O)N(N1CCOCC1)C2=O)c1ccc(F)cc1"
property_label = "GI50"
reported = "> 100 µM (inactive)"

[[record]]
compound = "CC(=O)OCCCCN1C(=O)CSc2ccccc21"
property_label = "GI50"
reported = "> 100 µM (inactive)"

[[record]]
compound = "O=C1CSC(c2ccccc2O)N1c1ccc(-c2ccc(-n3c(-c4ccccc4)nc4ccccc4c3=O)cc2)cc1 (configuration not stated)"
property_label = "GI50"
reported = "28.1 µM (inactive)"

[[record]]
compound = "Nc1ccc(S(=O)(=O)c2ccc(/N=[N+](\\[O-])c3ccc(S(=O)(=O)c4ccc(N)cc4)cc3)cc2)cc1"
property_label = "GI50"
reported = "> 64.6 µM (inactive)"

